B1: r4_43_TrROS_Hall (parent)
chain: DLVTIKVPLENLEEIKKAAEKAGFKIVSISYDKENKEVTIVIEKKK

Variants of: B1
Assay Name: folding stability dG (cDNA display proteolysis); higher = more stable
Condition Info: PBS, room temperature
Reported Endpoint: folding stability dG (kcal/mol)
Provide only the numeric value, understood in kcal/mol.

Quick one: folding stability dG for `P8T` ? 3.68

Report folding stability dG for `E37F` please. 3.93

Recorded folding stability dG for `K36D` , please? 3.28

Bench note: what folding stability dG did `K21C` show? 3.87

Name the reported folding stability dG value associated with the variant `K36H` 3.4

I'd like to know its folding stability dG. The variant in question is `K44P` 3.55
